Every entry's value here was drawn from paper PMC6222646.

Target: HIV-1 integrase (IN) (Human immunodeficiency virus type 1 group M subtype B)
Assay: In vitro integrase catalytic assay, 3'-processing (3'-P)
Format: biochemical
Settings: 400 nM IN, 20 nM 32P-labeled 21T/21B DNA, 37 °C, 2 h
Where a SMILES comes first, the peptide text is derived from it. [ ]: non-standard residue; d: D form. Bpa = N[C@@H](Cc1ccc(C(=O)c2ccccc2)cc1)C(=O)O
QUANTITY_MEASURED: pIC50
// field semantics: pIC50 = negative decimal log of concentration (mol/L)

Query :: Endpoint output: pIC50 of CC[C@H](C)[C@H](NC(=O)[C@H](CCCNC(=N)N)NC(=O)[C@H](Cc1ccc(C(=O)c2ccccc2)cc1)NC(=O)[C@H](Cc1c[nH]cn1)NC(=O)[C@@H](NC(=O)[C@@H](N)Cc1ccccc1)[C@@H](C)CC)C(=O)NCC(=O)O [Peptide 11a, FIHBRIG] (H-FIH[Bpa]RIG-OH) . Value?
Result :: 4.47
